Test system: rat hepatocytes
protocol.description: Hepatocyte assay for determination of metabolic stability
Format: in vitro ADME
reported.conditions: after incubation with rat hepatocytes
# CLblood (calculated blood clearance, well-stirred) per record follows
Express your answer in mL/min/kg, writing the number without its unit.

// below: answered molecules
| molecule | units.of.measure | observed.value |
| --- | --- | --- |
| Cc1ccc2nnn(C[C@H]3CC[C@@H](C(=O)c4ccc(OCc5cccc(C(F)(F)F)c5)cc4)[C@@H]3C(=O)O)c(=O)c2c1 (racemic) | mL/min/kg | 1.5 |
| Cc1ccc2nnn(C[C@H]3CC[C@@H](C(=O)c4ccc(OCc5cccc(OC(F)(F)F)c5)cc4)[C@@H]3C(=O)O)c(=O)c2c1 (racemic) | mL/min/kg | 6.67 |

Query block: Which CLblood (calculated blood clearance, well-stirred) is listed for Cc1ccc2nnn(C[C@H]3CC[C@@H](C(=O)c4ccc(OCc5ccc(F)cc5)cc4)[C@@H]3C(=O)O)c(=O)c2c1 (racemic) ?
Result block: 8.33

Query block: Entry Cc1ccc2nnn(C[C@H]3CC[C@@H](C(=O)c4ccc(OCc5cccc(Cl)c5)cc4)[C@@H]3C(=O)O)c(=O)c2c1 (racemic) has what CLblood (calculated blood clearance, well-stirred)?
Result block: 16.5

Query block: Fill in: CLblood (calculated blood clearance, well-stirred) of Cc1ccc2nnn(C[C@H]3CC[C@@H](C(=O)c4ccc(OCc5ccccc5)cc4)[C@@H]3C(=O)O)c(=O)c2c1 (racemic) is ___
Result block: 16.8

Query block: If you can, please state the reported CLblood (calculated blood clearance, well-stirred) value of O=C(O)[C@H]1[C@H](Cn2nnc3ccc(C(F)(F)F)cc3c2=O)CC[C@@H]1C(=O)c1ccc(OCc2ccccc2)cc1 (racemic) .
Result block: 18.7

----------
assay.system: MMP-1 (Homo sapiens, UniProt P03956)
Sequence (P03956 100-469): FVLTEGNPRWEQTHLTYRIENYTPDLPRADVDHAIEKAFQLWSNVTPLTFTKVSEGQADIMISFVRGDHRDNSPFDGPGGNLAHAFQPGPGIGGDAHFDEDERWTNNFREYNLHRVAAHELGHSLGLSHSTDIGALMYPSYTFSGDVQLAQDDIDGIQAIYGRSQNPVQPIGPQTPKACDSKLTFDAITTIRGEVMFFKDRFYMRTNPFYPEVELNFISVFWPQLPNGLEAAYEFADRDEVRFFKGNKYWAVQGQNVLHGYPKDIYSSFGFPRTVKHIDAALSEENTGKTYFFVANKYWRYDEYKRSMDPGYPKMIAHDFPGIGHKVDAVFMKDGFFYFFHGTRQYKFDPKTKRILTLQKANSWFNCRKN
Label scheme, based on IC50: low group (below 4 µM), middle group (4 µM to below 10 µM), high group (10 µM or more)

| compound | assay.system | assigned.class |
| --- | --- | --- |
| Cc1ccc2nnn(C[C@H]3CC[C@@H](C(=O)c4ccc(OCC5CCCCC5)cc4)[C@@H]3C(=O)O)c(=O)c2c1 (single isomer, unassigned) | MMP-1 (Homo sapiens, UniProt P03956) | middle group |
| CCCCCCOc1ccc(C(=O)[C@@H]2CC[C@H](Cn3nnc4ccc(C)cc4c3=O)[C@H]2C(=O)O)cc1 (single isomer, unassigned) | MMP-1 (Homo sapiens, UniProt P03956) | high group |
| O=C(O)[C@H]1[C@H](Cn2nnc3ccc(C(F)(F)F)cc3c2=O)CC[C@@H]1C(=O)c1ccc(SCc2ccc(Cl)c(Cl)c2)cc1 (racemic) | MMP-1 (Homo sapiens, UniProt P03956) | high group |
| CCCCCSc1ccc(C(=O)[C@H]2CC[C@@H](Cn3nnc4ccc(C(F)(F)F)cc4c3=O)[C@@H]2C(=O)O)cc1 (racemic) | MMP-1 (Homo sapiens, UniProt P03956) | low group |
| O=C(O)[C@H]1[C@H](Cn2nnc3ccc(C(F)(F)F)cc3c2=O)CC[C@@H]1C(=O)c1ccc(OCC2CCCCC2)cc1 (racemic) | MMP-1 (Homo sapiens, UniProt P03956) | low group |

Moving on to another compound below.
Query block: # classify by IC50 band: O=C(O)[C@H]1[C@H](Cn2nnc3ccccc3c2=O)CC[C@@H]1C(=O)c1ccc(OCCC2CCCCC2)cc1 (racemic)
Result block: high group

----------
Notes on IC50 obtained with MMP-13 (Homo sapiens).
Numbers only here, please. The scale is nM.

The cases that follow already have their IC50 on record.
| compound | units.of.measure | observed.value |
| --- | --- | --- |
| CCCCCCOc1ccc(C(=O)[C@@H]2CC[C@H](Cn3nnc4ccc(C)cc4c3=O)[C@H]2C(=O)O)cc1 (single isomer, unassigned) [Example 121] | nM | 300 |
| Cc1cccc(COc2ccc(C(=O)[C@@H]3CC[C@H](Cn4nnc5ccc(C)cc5c4=O)[C@H]3C(=O)O)cc2)c1 (single isomer, unassigned) [Example 98] | nM | 410 |
| Cc1ccc2nnn(C[C@@H]3CC[C@H](C(=O)c4ccc(OCc5cccc(C(F)(F)F)c5)cc4)[C@H]3C(=O)O)c(=O)c2c1 (racemic) [Example 100] | nM | 360 |
| O=C(O)[C@H]1[C@H](Cn2nnc3ccc(C(F)(F)F)cc3c2=O)CC[C@@H]1C(=O)c1ccc(OCCCc2ccccc2)cc1 (racemic) [Example 39] | nM | 1600 |
| Cc1cccc(COc2ccc(C(=O)[C@H]3CC[C@@H](Cn4nnc5ccc(C)cc5c4=O)[C@@H]3C(=O)O)cc2)c1 (racemic) [Example 97] | nM | 1500 |

Please turn your attention to the following entry.
Query block: Param readout= IC50; system= MMP-13 (Homo sapiens); entry= Cc1ccc2nnn(C[C@H]3CC[C@@H](C(=O)c4ccc(OCc5cccc(Cl)c5)cc4)[C@@H]3C(=O)O)c(=O)c2c1 (single isomer, unassigned) [Example 104] ; returns value.
Result block: 200

----------
assay.system: MMP-9 (Homo sapiens, UniProt P14780)
Sequence (P14780 107-707 limits assumed): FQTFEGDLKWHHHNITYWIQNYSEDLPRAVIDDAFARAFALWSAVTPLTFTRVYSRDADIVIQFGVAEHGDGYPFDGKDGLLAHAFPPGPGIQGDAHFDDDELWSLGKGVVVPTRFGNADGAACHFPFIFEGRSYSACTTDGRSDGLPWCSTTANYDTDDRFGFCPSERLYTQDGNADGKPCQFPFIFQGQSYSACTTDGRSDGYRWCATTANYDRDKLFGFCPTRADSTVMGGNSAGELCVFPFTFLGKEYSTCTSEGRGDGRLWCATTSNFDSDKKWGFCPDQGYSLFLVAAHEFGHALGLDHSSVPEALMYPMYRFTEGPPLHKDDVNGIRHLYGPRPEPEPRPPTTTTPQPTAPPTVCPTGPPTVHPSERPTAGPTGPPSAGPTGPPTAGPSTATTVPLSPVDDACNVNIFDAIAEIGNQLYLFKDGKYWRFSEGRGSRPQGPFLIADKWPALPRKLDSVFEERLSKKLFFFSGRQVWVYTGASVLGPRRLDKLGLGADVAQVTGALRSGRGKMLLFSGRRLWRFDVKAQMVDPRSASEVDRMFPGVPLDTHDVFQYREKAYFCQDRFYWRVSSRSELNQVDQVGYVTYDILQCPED
pIC50: −log10 of the molar value.
Label yes (1) when pIC50 is at or above 7; otherwise label no (0).

These recorded examples may help you get a feel for the data.
| compound | assigned.class |
| --- | --- |
| Cc1cccc(COc2ccc(C(=O)[C@@H]3CC[C@H](Cn4nnc5ccc(C)cc5c4=O)[C@H]3C(=O)O)cc2)c1 (single isomer, unassigned) | no (0) |
| O=C(O)[C@H]1[C@H](Cn2nnc3ccccc3c2=O)CC[C@@H]1C(=O)c1ccc(OCc2ccc(F)cc2)cc1 (racemic) | yes (1) |
| Cc1ccc2nnn(C[C@@H]3CC[C@H](C(=O)c4ccc(OCc5ccccc5)cc4)[C@H]3C(=O)O)c(=O)c2c1 (racemic) | yes (1) |
| O=C(O)[C@@H]1[C@@H](Cn2nnc3ccc(C(F)(F)F)cc3c2=O)CC[C@H]1C(=O)c1ccc(OCCC2CCCC2)cc1 (single isomer, unassigned) | no (0) |
| Cc1ccc2nnn(C[C@H]3CC[C@@H](C(=O)c4ccc(OCC5CCCCC5)cc4)[C@@H]3C(=O)O)c(=O)c2c1 (single isomer, unassigned) | yes (1) |

Now let's try a different one.
Query block: Is it the case that O=C(O)[C@@H]1[C@@H](Cn2nnc3ccc(C(F)(F)F)cc3c2=O)CC[C@H]1C(=O)c1ccc(OCc2ccc(Cl)cc2)cc1 (single isomer, unassigned) has pIC50 reaching or exceeding 7?
Result block: yes (1)

----------
pIC50 by entry:
assay.system: human macrophage elastase (HME/hMMP-12) (Homo sapiens, UniProt P39900)
Construct: 0.5 nM HME
Sequence (P39900 106-470): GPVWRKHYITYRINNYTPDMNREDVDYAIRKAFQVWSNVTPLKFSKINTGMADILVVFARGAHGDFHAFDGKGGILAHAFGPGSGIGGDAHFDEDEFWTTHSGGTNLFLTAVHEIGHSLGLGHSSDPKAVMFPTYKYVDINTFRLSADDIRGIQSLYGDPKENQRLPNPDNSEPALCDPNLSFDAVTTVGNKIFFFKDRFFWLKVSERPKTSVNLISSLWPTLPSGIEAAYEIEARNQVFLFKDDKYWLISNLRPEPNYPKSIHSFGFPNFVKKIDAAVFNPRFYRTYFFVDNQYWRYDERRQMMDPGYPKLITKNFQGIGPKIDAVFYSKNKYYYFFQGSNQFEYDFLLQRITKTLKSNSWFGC
protocol.description: In vitro HME inhibition test (standard or high-sensitivity)
reported.conditions: in some cases mean values
Conceptually, pIC50 converts a concentration in mol/L into minus its log10.

Consider the reported pIC50 for these compounds:
| compound | observed.value |
| --- | --- |
| O=C(O)[C@@H]1[C@@H](Cn2nnc3ccc(C(F)(F)F)cc3c2=O)CC[C@H]1C(=O)c1ccc(OCc2cccc(N3CCOC3=O)c2)cc1 (single isomer, unassigned) [Example 35] | 10.89 |
| O=C(O)[C@@H]1[C@@H](Cn2nnc3ccc(C(F)(F)F)cc3c2=O)CC[C@H]1C(=O)c1ccc(OCCC2CCCCC2)cc1 (single isomer, unassigned) [Example 51] | 7.52 |
| Cc1ccc2nnn(C[C@H]3CC[C@@H](C(=O)c4ccc(OCc5ccccc5)cc4)[C@@H]3C(=O)O)c(=O)c2c1 (single isomer, unassigned) [Example 93] | 6.72 |
| O=C(O)[C@@H]1[C@@H](Cn2nnc3ccc(C(F)(F)F)cc3c2=O)CC[C@H]1C(=O)c1ccc(OCCC2CCCC2)cc1 (single isomer, unassigned) [Example 55] | 10.43 |

As a next step, examine the compound that follows.
Query block: Reported pIC50 for Cc1cccc(COc2ccc(C(=O)[C@H]3CC[C@@H](Cn4nnc5ccc(C(F)(F)F)cc5c4=O)[C@@H]3C(=O)O)cc2)c1 (racemic) : what is it?
Result block: 10.30

Where do these numbers come from? They come from patent US20170022171A1.
